- assayedSystem: glucocorticoid receptors (Homo sapiens)
- method: Glucocorticoid receptor binding displacement assay with 3H-dexamethasone
- Parameters: This GR was a full-length steroid hormone receptor; host or cells: recombinant baculovirus-infected insect cells
- conditionInfo: Ki from IC50 by Cheng-Prusoff; 2.5 nM 3H-dexamethasone; read-out: GR Binding
- Protocol: The source of the receptor was recombinant baculovirus-infected insect cells. This GR was a full-length steroid hormone receptor likely to be associated with heat-shock and other endogenous proteins. […] After 2.5 hrs incubation, unbound counts were removed with dextran coated charcoal (DCC) as follows: 25 μl of DCC solution (10% DCC in assay buffer) was added to all wells and mixed (total volume 225 μl). […] The plate was vigorously shaken for approx. 10 minutes and counted on Topcount. […]
quantityName: Ki

COCCOC[C@]12Cc3cnn(-c4ccc(F)cc4)c3C[C@@H]1CCN(S(=O)(=O)c1ccc(C(C)(C)C)cc1)C2 : < 10 nM

// fetch Ki given entry CN1CCOc2cc(S(=O)(=O)N3CCC4=Cc5[nH]ncc5CC4(Cc4ccccc4)C3)ccc21 (stereo not shown) [drawing 247]
< 10 nM

// fetch Ki given entry Cc1ccc(S(=O)(=O)N2CCC3=Cc4c(cnn4-c4ccc(F)cc4)C[C@]3(CO)C2)cc1
< 10 nM

// fetch Ki given entry CC(C)(C)c1ccc(S(=O)(=O)N2CCC3=Cc4c(cnn4-c4ccc(F)cc4)C[C@]3(C(O)c3ccccc3)C2)cc1 (stereo partly shown)
10 to 100 nM

// fetch Ki given entry CCCCn1ncc2c1C=C1CCN(S(=O)(=O)c3ccc(C)cc3)C[C@@]1(CN1CCCCC1)C2
10 to 100 nM

// fetch Ki given entry COc1ccc(CC23Cc4cnn(-c5ccc(F)cc5)c4C=C2CCN(Cc2ccccc2)C3)cc1 (stereo not shown) [drawing 244]
< 10 nM

// fetch Ki given entry COC(=O)[C@]12Cc3cnn(C(C)C)c3C=C1CCN(S(=O)(=O)c1ccc(C(C)(C)C)cc1)C2
10 to 100 nM

* * *

Recorded pKi for the following compounds
- assayedSystem: glucocorticoid receptors (Homo sapiens, UniProt P04150)
- Sequence (P04150 whole entry): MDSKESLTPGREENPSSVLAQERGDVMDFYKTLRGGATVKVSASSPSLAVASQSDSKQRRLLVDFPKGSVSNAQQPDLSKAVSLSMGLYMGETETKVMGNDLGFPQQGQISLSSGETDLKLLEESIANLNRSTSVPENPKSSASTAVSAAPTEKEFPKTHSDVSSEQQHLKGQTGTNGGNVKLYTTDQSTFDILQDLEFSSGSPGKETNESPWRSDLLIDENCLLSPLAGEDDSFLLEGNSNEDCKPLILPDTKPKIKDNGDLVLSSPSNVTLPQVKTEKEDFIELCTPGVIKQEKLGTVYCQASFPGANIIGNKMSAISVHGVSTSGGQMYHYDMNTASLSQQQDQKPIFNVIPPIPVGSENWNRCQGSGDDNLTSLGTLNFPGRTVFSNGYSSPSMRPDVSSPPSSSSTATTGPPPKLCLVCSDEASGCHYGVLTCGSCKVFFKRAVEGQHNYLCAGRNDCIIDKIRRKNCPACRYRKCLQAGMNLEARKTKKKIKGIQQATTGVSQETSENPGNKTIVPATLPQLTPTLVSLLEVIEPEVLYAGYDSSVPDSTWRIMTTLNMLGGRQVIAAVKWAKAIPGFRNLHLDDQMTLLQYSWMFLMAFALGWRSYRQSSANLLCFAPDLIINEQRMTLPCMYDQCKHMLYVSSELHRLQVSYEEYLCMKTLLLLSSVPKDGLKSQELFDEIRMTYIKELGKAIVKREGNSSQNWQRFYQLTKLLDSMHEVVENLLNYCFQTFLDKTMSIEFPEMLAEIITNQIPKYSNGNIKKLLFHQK
- method: GR functional assay using SW1353/MMTV-5 cells (dexamethasone-induced luciferase)
- Format: cell-based
- Set-up: contains endogenous glucocorticoid receptors; endogenous in cells; host or cells: SW1353/MMTV-5 (human chondrosarcoma, stably carrying the pMAMneo-Luc reporter)
- conditionInfo: read-out: GR Functional
pKi: −log10 of the molar value.

Below, 5 compounds whose answers are already recorded.
CCCCn1ncc2c1C=C1CCN(S(=O)(=O)c3ccc(C(C)(C)C)cc3)C[C@@]1(COCCOC)C2 : 7.00 to 8.00
COCCOC[C@]12Cc3cnn(-c4ccc(F)cc4)c3C=C1CCN(S(=O)(=O)c1ccccc1)C2 : > 8.00
Cc1ccc(S(=O)(=O)N2CCC3=Cc4c(cnn4-c4ccc(F)cc4)C[C@]3(CN3CCCC3)C2)cc1 : > 8.00
CCCCn1ncc2c1C=C1CCN(S(=O)(=O)c3ccc(C(C)(C)C)cc3)C[C@@]1(C(=O)OC)C2 : < 7.00
O=S(=O)(c1ccccc1)N1CCC2=Cc3c(cnn3-c3ccc(F)cc3)CC2(Cc2ccc(F)cc2)C1 (stereo not drawn) : 7.00 to 8.00

// fetch pKi given entry CC(C)(C)c1ccc(S(=O)(=O)N2CCC3=Cc4c(cnn4-c4ccc(C#N)cc4)CC3(Cc3ccccc3)C2)cc1 (stereo not drawn) [drawing 239]
7.00 to 8.00

// fetch pKi given entry COC(=O)[C@]12Cc3cnn(-c4ccc(F)cc4)c3C=C1CCN(S(=O)(=O)c1ccc(C(C)(C)C)cc1)C2
7.00 to 8.00

// fetch pKi given entry O=S(=O)(c1ccc(N2CCOCC2)nc1)N1CCC2=Cc3c(cnn3-c3ccc(F)cc3)CC2(Cc2ccc(F)cc2)C1 (stereo not drawn)
7.00 to 8.00

// fetch pKi given entry CCCCn1ncc2c1C=C1CCN(S(=O)(=O)c3ccc(C(C)(C)C)cc3)C[C@@]1(CN(C)C)C2
< 7.00

// fetch pKi given entry CN(C)C(=O)[C@]12Cc3cnn(-c4ccc(F)cc4)c3C=C1CCN(S(=O)(=O)c1ccc(C(C)(C)C)cc1)C2
< 7.00

// fetch pKi given entry CS(=O)(=O)N1CCC2=Cc3c(cnn3-c3ccc(F)cc3)CC2(Cc2ccc(F)cc2)C1 (stereo not drawn)
< 7.00

// fetch pKi given entry COC[C@]12Cc3cnn(-c4ccc(F)cc4)c3C=C1CCN(S(=O)(=O)c1ccc(C)cc1)C2
> 8.00

// fetch pKi given entry COCCOC[C@]12Cc3cnn(-c4ccc(F)cc4)c3C=C1CCN(S(=O)(=O)c1ccc(F)cc1)C2
> 8.00

// fetch pKi given entry COC[C@]12Cc3cnn(-c4ccc(F)cc4)c3C=C1CCN(S(=O)(=O)c1ccc(F)cc1)C2
7.00 to 8.00

// fetch pKi given entry CCCCn1ncc2c1C=C1CCN(S(=O)(=O)c3ccc(C(C)(C)C)cc3)C[C@@]1(CN1CCCCC1)C2
7.00 to 8.00

// fetch pKi given entry CCC(O)[C@]12Cc3cnn(-c4ccc(F)cc4)c3C=C1CCN(S(=O)(=O)c1ccc(C(C)(C)C)cc1)C2 (stereo partly drawn)
7.00 to 8.00

// fetch pKi given entry O=S(=O)(c1ccccc1)N1CCC2=Cc3c(cnn3-c3ccc(F)cc3)C[C@]2(COCCO)C1
7.00 to 8.00

// fetch pKi given entry CN(C)C[C@]12Cc3cnn(-c4ccc(F)cc4)c3C=C1CCN(S(=O)(=O)c1ccccc1)C2
7.00 to 8.00

// fetch pKi given entry CC(C)(C)c1ccc(S(=O)(=O)N2CCC3=Cc4c(cnn4-c4ccc(F)cc4)C[C@]3(C(=O)N3CCCC3)C2)cc1
7.00 to 8.00
